Measured MIC90 accompanies every entry in the list below.
Tested on: Enterococcus faecium
Assay: Antibacterial activity against VanA-resistant Enterococcus faecium
Format: functional
Give just the numeric value; µg/mL need not be written.

Here is how some molecules turned out for MIC90.
> print(dat)
                                   molecule  observed
1  Cc1c(N2CC[C@@H]([C@H](C)N)C2)c(F)cc2c(=O)[nH]c(=O)n(C3CC3)c12         2
2  C[C@H]1COc2c(N3CCN(C)CC3)c(F)cc3c(=O)c(C(=O)O)cn1c23.C[C@H]1COc2c(N3CCN(C)CC3)c(F)cc3c(=O)c(C(=O)O)cn1c23.O        64
3  C[C@H]1NCc2cc(-c3ccc4c(=O)c(C(=O)O)cn(C5CC5)c4c3OC(F)F)ccc21        16
4  Cc1c(N2CC[C@@H]([C@H](C)N)C2)c(F)cc2c(=O)n(N)c(=O)n(C3CC3)c12         2

MIC90 for COc1c(N2CCNC(C)C2)c(F)cc2c(=O)c(C(=O)O)cn(C3CC3)c12 (stereo not given) ?
64

* * *

System: Streptococcus pneumoniae
Experiment: Antibacterial activity against levofloxacin-resistant Streptococcus pneumoniae
Assay type: functional
property name: MIC90 (µg/mL)
Give just the numeric value; µg/mL need not be written.

Here is how some compounds turned out for MIC90.
compound	MIC90 / µg/mL
Cc1c(N2CC[C@@H]([C@H](C)N)C2)c(F)cc2c(=O)[nH]c(=O)n(C3CC3)c12	0.06
Cc1c(N2CC[C@@H]([C@H](C)N)C2)c(F)cc2c(=O)n(N)c(=O)n(C3CC3)c12	0.06
COc1c(N2CCNC(C)C2)c(F)cc2c(=O)c(C(=O)O)cn(C3CC3)c12 (stereo not given) [GATIFLOXACIN]	4
C[C@H]1COc2c(N3CCN(C)CC3)c(F)cc3c(=O)c(C(=O)O)cn1c23.C[C@H]1COc2c(N3CCN(C)CC3)c(F)cc3c(=O)c(C(=O)O)cn1c23.O [LEVOFLOXACIN]	16

// next entry
MIC90 for C[C@H]1NCc2cc(-c3ccc4c(=O)c(C(=O)O)cn(C5CC5)c4c3OC(F)F)ccc21 [GARENOXACIN] ?
2

* * *

Tested on: Enterobacter cloacae
Assay: Antibacterial activity against Enterobacter cloacae
Type: functional
property name: MIC90 (µg/mL)
Give just the numeric value; µg/mL need not be written.

Here is how some compounds turned out for MIC90.
> print(dat)
                                   compound  property.name  endpoint.unit  observed
1  Cc1c(N2CC[C@@H]([C@H](C)N)C2)c(F)cc2c(=O)n(N)c(=O)n(C3CC3)c12          MIC90          µg/mL         4
2  C[C@H]1COc2c(N3CCN(C)CC3)c(F)cc3c(=O)c(C(=O)O)cn1c23.C[C@H]1COc2c(N3CCN(C)CC3)c(F)cc3c(=O)c(C(=O)O)cn1c23.O          MIC90          µg/mL         1
3  Cc1c(N2CC[C@@H]([C@H](C)N)C2)c(F)cc2c(=O)[nH]c(=O)n(C3CC3)c12          MIC90          µg/mL        16
4  C[C@H]1NCc2cc(-c3ccc4c(=O)c(C(=O)O)cn(C5CC5)c4c3OC(F)F)ccc21          MIC90          µg/mL         2

// next entry
For the record COc1c(N2CCNC(C)C2)c(F)cc2c(=O)c(C(=O)O)cn(C3CC3)c12 (stereo not given) , what value of MIC90 is listed for Enterobacter cloacae?
1

* * *

Measured MIC90 accompanies every entry in the list below.
System: Streptococcus pyogenes
Assay: Antibacterial activity against Streptococcus pyogenes
Assay type: functional
Give just the numeric value; µg/mL need not be written.

Here is how some compounds turned out for MIC90.
> print(dat)
                                   compound         measured.target  property.name  observed
1  C[C@H]1COc2c(N3CCN(C)CC3)c(F)cc3c(=O)c(C(=O)O)cn1c23.C[C@H]1COc2c(N3CCN(C)CC3)c(F)cc3c(=O)c(C(=O)O)cn1c23.O  Streptococcus pyogenes          MIC90         2
2  Cc1c(N2CC[C@@H]([C@H](C)N)C2)c(F)cc2c(=O)n(N)c(=O)n(C3CC3)c12  Streptococcus pyogenes          MIC90      0.03
3  Cc1c(N2CC[C@@H]([C@H](C)N)C2)c(F)cc2c(=O)[nH]c(=O)n(C3CC3)c12  Streptococcus pyogenes          MIC90      0.03
4  COc1c(N2CCNC(C)C2)c(F)cc2c(=O)c(C(=O)O)cn(C3CC3)c12 (stereo not given)  Streptococcus pyogenes          MIC90       0.5

For the record C[C@H]1NCc2cc(-c3ccc4c(=O)c(C(=O)O)cn(C5CC5)c4c3OC(F)F)ccc21 , what value of MIC90 is listed for Streptococcus pyogenes?
0.25

* * *

Measured MIC90 accompanies every entry in the list below.
System: Acinetobacter sp.
Experiment: Antibacterial activity against Acinetobacter sp.
Type: functional
Give just the numeric value; µg/mL need not be written.

Here is how some compounds turned out for MIC90.
compound	MIC90 / µg/mL
COc1c(N2CCNC(C)C2)c(F)cc2c(=O)c(C(=O)O)cn(C3CC3)c12 (stereo not given) [GATIFLOXACIN]	16
Cc1c(N2CC[C@@H]([C@H](C)N)C2)c(F)cc2c(=O)[nH]c(=O)n(C3CC3)c12	64
Cc1c(N2CC[C@@H]([C@H](C)N)C2)c(F)cc2c(=O)n(N)c(=O)n(C3CC3)c12	8
C[C@H]1NCc2cc(-c3ccc4c(=O)c(C(=O)O)cn(C5CC5)c4c3OC(F)F)ccc21 [GARENOXACIN]	16

MIC90 for C[C@H]1COc2c(N3CCN(C)CC3)c(F)cc3c(=O)c(C(=O)O)cn1c23.C[C@H]1COc2c(N3CCN(C)CC3)c(F)cc3c(=O)c(C(=O)O)cn1c23.O [LEVOFLOXACIN] ?
16

* * *

System: Neisseria gonorrhoeae
Assay: Antibacterial activity against Neisseria gonorrhoeae
Assay type: functional
Measured MIC50 accompanies every entry in the list below.
Give just the numeric value; ng/mL need not be written.

MIC50 for C[C@H]1COc2c(N3CCN(C)CC3)c(F)cc3c(=O)c(C(=O)O)cn1c23.C[C@H]1COc2c(N3CCN(C)CC3)c(F)cc3c(=O)c(C(=O)O)cn1c23.O ?
8

MIC50 for Cc1c(N2CC[C@@H]([C@H](C)N)C2)c(F)cc2c(=O)n(N)c(=O)n(C3CC3)c12 ?
250

MIC50 for Cc1c(N2CC[C@@H]([C@H](C)N)C2)c(F)cc2c(=O)[nH]c(=O)n(C3CC3)c12 ?
500

MIC50 for COc1c(N2CCNC(C)C2)c(F)cc2c(=O)c(C(=O)O)cn(C3CC3)c12 (stereo not given) ?
4

MIC50 for C[C@H]1NCc2cc(-c3ccc4c(=O)c(C(=O)O)cn(C5CC5)c4c3OC(F)F)ccc21 ?
4

* * *

Test system: Burkholderia cepacia
Assay: Antibacterial activity against Burkholderia cepacia
Assay type: functional
Measured MIC90 accompanies every entry in the list below.
Give just the numeric value; µg/mL need not be written.

Here is how some compounds turned out for MIC90.
> print(dat)
                                   compound       measured.target  observed
1  C[C@H]1COc2c(N3CCN(C)CC3)c(F)cc3c(=O)c(C(=O)O)cn1c23.C[C@H]1COc2c(N3CCN(C)CC3)c(F)cc3c(=O)c(C(=O)O)cn1c23.O  Burkholderia cepacia        16
2  Cc1c(N2CC[C@@H]([C@H](C)N)C2)c(F)cc2c(=O)n(N)c(=O)n(C3CC3)c12  Burkholderia cepacia        64

MIC90 for COc1c(N2CCNC(C)C2)c(F)cc2c(=O)c(C(=O)O)cn(C3CC3)c12 (stereo not given) ?
16

* * *

Measured MIC90 accompanies every entry in the list below.
Tested on: Staphylococcus epidermidis
Assay: Antibacterial activity against oxacillin-resistant Staphylococcus epidermidis
Format: functional

Here is how some compounds turned out for MIC90.
compound	MIC90
Cc1c(N2CC[C@@H]([C@H](C)N)C2)c(F)cc2c(=O)n(N)c(=O)n(C3CC3)c12	0.125 µg/mL
C[C@H]1COc2c(N3CCN(C)CC3)c(F)cc3c(=O)c(C(=O)O)cn1c23.C[C@H]1COc2c(N3CCN(C)CC3)c(F)cc3c(=O)c(C(=O)O)cn1c23.O [LEVOFLOXACIN]	64 µg/mL
Cc1c(N2CC[C@@H]([C@H](C)N)C2)c(F)cc2c(=O)[nH]c(=O)n(C3CC3)c12	0.25 µg/mL
COc1c(N2CCNC(C)C2)c(F)cc2c(=O)c(C(=O)O)cn(C3CC3)c12 (stereo not given) [GATIFLOXACIN]	32 µg/mL

// next entry
MIC90 for C[C@H]1NCc2cc(-c3ccc4c(=O)c(C(=O)O)cn(C5CC5)c4c3OC(F)F)ccc21 [GARENOXACIN] ?
32 µg/mL
